System: U251 CNS
Assay: NCI tumour cell line growth inhibition, 48 h; in the data active = GI50 below about 0.43 µM; inactive = the rest
Permitted responses: T for active, F for inactive

Worked cases, answers included:
compound	class_name
CC[C@@]1(OC(=O)CN)C(=O)OCc2c1cc1n(c2=O)Cc2cc3c(N)cccc3nc2-1	T
Oc1ccccc1C=Nc1nc(SCc2ccccc2)nc2[nH]ncc12	F
C=C1C(=O)O[C@H]2[C@H]1CCC(/C=N/c1ncc(Br)cc1N)=C\CC[C@@]1(C)O[C@@H]21	F

Lookup: Dear all, I need the recorded test outcome for "COc1cc(/C=C/C(=O)c2c(C)nc3ccccc3c2/C=C/c2ccc(C)cc2)cc(OC)c1OC" , thank you.
Found: F

Lookup: Another compound to check: "Cc1cc2[nH]c(=O)c3c4ccccc4cn3c2cc1C"
Found: F

Lookup: Another compound to check: CC(NCCC(=O)N(CCC(=O)N(CCC(=O)N(CCC(=O)N(CCC(=O)N(CCC(=O)N(CCC(=O)N(CCC(=O)N(CCC(=O)N(CCC(=O)O)[C@H](C)c1ccccc1)[C@H](C)c1ccccc1)[C@H](C)c1ccccc1)[C@H](C)c1ccccc1)[C@H](C)c1ccccc1)[C@H](C)c1ccccc1)[C@H](C)c1ccccc1)[C@H](C)c1ccccc1)[C@H](C)c1ccccc1)c1ccccc1 (stereo not given in full)
Found: F
